- test-details: AUC (0 to infinity) in healthy human at 2000 mg, iv administered as single dose as 1 hr iv infusion
- Assay type: ADME, organism-based
- Design: dose 2000 mg, route intravenous, time infinity
- settings: plasma
endpoint-name: AUC(0-inf) (µg·h/mL)

>>> df
                                   molecule  endpoint_name  units_symbol  val
0  Cn1c(N)c(NC(=O)NCCN)c[n+]1CC1=C(C(=O)O)N2C(=O)[C@@H](NC(=O)/C(=N\OC(C)(C)C(=O)[O-])c3nsc(N)n3)[C@H]2SC1 [CEFTOLOZANE]     AUC(0-inf)       µg·h/mL  344

====

- test-details: Clearance in healthy human at 500 mg, iv administered as single dose as 1 hr iv infusion
- Assay type: ADME, organism-based
- settings: in vivo
endpoint-name: clearance (mL/min)

                           structure_string   val
0  Cn1c(N)c(NC(=O)NCCN)c[n+]1CC1=C(C(=O)O)N2C(=O)[C@@H](NC(=O)/C(=N\OC(C)(C)C(=O)[O-])c3nsc(N)n3)[C@H]2SC1  99.1

====

- test-details: Tmax in healthy human at 500 mg, iv administered as 1 hr infusion every 8 hrs for 10 days measured on day 10
- Assay type: ADME, organism-based
- settings: in vivo
endpoint-name: Tmax (min)

In [3]: df
Out[3]:
                           structure_string   val
0  Cn1c(N)c(NC(=O)NCCN)c[n+]1CC1=C(C(=O)O)N2C(=O)[C@@H](NC(=O)/C(=N\OC(C)(C)C(=O)[O-])c3nsc(N)n3)[C@H]2SC1  55.8

====

- test-details: Drug recovery in urine of healthy human at 1000 mg, iv administered as single dose as 1 hr iv infusion after 24 hrs
- Format: ADME, organism-based
- settings: read-out: Activity
endpoint-name: dose excreted at 24 h

                                   compound    val
0  Cn1c(N)c(NC(=O)NCCN)c[n+]1CC1=C(C(=O)O)N2C(=O)[C@@H](NC(=O)/C(=N\OC(C)(C)C(=O)[O-])c3nsc(N)n3)[C@H]2SC1 [CEFTOLOZANE]  85.2%

====

- test-details: Half-life in plasma of healthy human 500 mg administered as single ascending dose, iv for 1 hr infusion
- Assay type: ADME, organism-based
endpoint-name: half-life (h)

In [3]: df
Out[3]:
                           structure_string   val
0  Cn1c(N)c(NC(=O)NCCN)c[n+]1CC1=C(C(=O)O)N2C(=O)[C@@H](NC(=O)/C(=N\OC(C)(C)C(=O)[O-])c3nsc(N)n3)[C@H]2SC1  2.34

====

- test-details: Cmax in healthy human at 500 mg, iv administered as 1 hr infusion every 8 hrs for 10 days measured on day 1
- Assay type: ADME, organism-based
- Set-up: dose 500 mg, route intravenous
- settings: in vivo
endpoint-name: Cmax (µg/mL)

In [3]: df
Out[3]:
                           structure_string   val
0  Cn1c(N)c(NC(=O)NCCN)c[n+]1CC1=C(C(=O)O)N2C(=O)[C@@H](NC(=O)/C(=N\OC(C)(C)C(=O)[O-])c3nsc(N)n3)[C@H]2SC1  34.3

====

- test-details: Drug recovery in urine of healthy human at 500 mg, iv administered as single dose as 1 hr iv infusion after 24 hrs
- Type: ADME, organism-based
- settings: read-out: Activity
endpoint-name: dose excreted at 24 h (%)

>>> df
                           structure_string          endpoint_name   val
0  Cn1c(N)c(NC(=O)NCCN)c[n+]1CC1=C(C(=O)O)N2C(=O)[C@@H](NC(=O)/C(=N\OC(C)(C)C(=O)[O-])c3nsc(N)n3)[C@H]2SC1  dose excreted at 24 h  91.2

====

- test-details: Renal clearance in healthy human at 500 mg, iv administered as 1 hr infusion every 8 hrs for 10 days measured on day 10
- Assay type: ADME, organism-based, Kidney
- settings: in vivo, read-out: CL_renal
endpoint-name: CL renal (mL/min)

>>> df
                                   molecule  units_symbol   val
0  Cn1c(N)c(NC(=O)NCCN)c[n+]1CC1=C(C(=O)O)N2C(=O)[C@@H](NC(=O)/C(=N\OC(C)(C)C(=O)[O-])c3nsc(N)n3)[C@H]2SC1 [CEFTOLOZANE]        mL/min  87.6

====

- test-details: Half-life in plasma of healthy human 2000 mg administered as single ascending dose, iv for 1 hr infusion
- Assay type: ADME, organism-based
endpoint-name: half-life (h)

                           structure_string  units_symbol   val
0  Cn1c(N)c(NC(=O)NCCN)c[n+]1CC1=C(C(=O)O)N2C(=O)[C@@H](NC(=O)/C(=N\OC(C)(C)C(=O)[O-])c3nsc(N)n3)[C@H]2SC1             h  2.45

====

- test-details: Tmax in healthy human at 500 mg, iv administered as single dose as 1 hr iv infusion
- Type: ADME, organism-based
- settings: in vivo
endpoint-name: Tmax (h)

                           structure_string  endpoint_name   val
0  Cn1c(N)c(NC(=O)NCCN)c[n+]1CC1=C(C(=O)O)N2C(=O)[C@@H](NC(=O)/C(=N\OC(C)(C)C(=O)[O-])c3nsc(N)n3)[C@H]2SC1           Tmax  1.03

====

- test-details: Clearance in healthy human at 500 mg, iv administered as 1 hr infusion every 8 hrs for 10 days measured on day 10
- Assay type: ADME, organism-based
- settings: in vivo
endpoint-name: clearance (mL/min)

>>> print(df.to_string())
                           structure_string  units_symbol  val
0  Cn1c(N)c(NC(=O)NCCN)c[n+]1CC1=C(C(=O)O)N2C(=O)[C@@H](NC(=O)/C(=N\OC(C)(C)C(=O)[O-])c3nsc(N)n3)[C@H]2SC1        mL/min  101

====

- test-details: Clearance in healthy human at 250 mg, iv administered as single dose as 1 hr iv infusion
- Type: ADME, organism-based
- settings: in vivo
endpoint-name: clearance (mL/min)

                                   molecule  endpoint_name  units_symbol  val
0  Cn1c(N)c(NC(=O)NCCN)c[n+]1CC1=C(C(=O)O)N2C(=O)[C@@H](NC(=O)/C(=N\OC(C)(C)C(=O)[O-])c3nsc(N)n3)[C@H]2SC1 [CEFTOLOZANE]      clearance        mL/min  104

====

- test-details: AUC (0 to infinity) in healthy human at 1500 mg, iv administered as 1 hr infusion every 12 hrs for 10 days measured on day 1
- Format: ADME, organism-based
- Parameters: dose 1500 mg, route intravenous, time infinity
- settings: plasma
endpoint-name: AUC(0-inf) (µg·h/mL)

                                   molecule  endpoint_name  val
0  Cn1c(N)c(NC(=O)NCCN)c[n+]1CC1=C(C(=O)O)N2C(=O)[C@@H](NC(=O)/C(=N\OC(C)(C)C(=O)[O-])c3nsc(N)n3)[C@H]2SC1 [CEFTOLOZANE]     AUC(0-inf)  219

====

- test-details: Renal clearance in healthy human at 500 mg, iv administered as single dose as 1 hr iv infusion
- Type: ADME, organism-based, Kidney
- settings: in vivo, read-out: CL_renal
endpoint-name: CL renal at 1 h (mL/min)

>>> print(df.to_string())
                           structure_string   val
0  Cn1c(N)c(NC(=O)NCCN)c[n+]1CC1=C(C(=O)O)N2C(=O)[C@@H](NC(=O)/C(=N\OC(C)(C)C(=O)[O-])c3nsc(N)n3)[C@H]2SC1  90.4

====

- test-details: Volume of distribution at steady state in healthy human at 1500 mg, iv administered as single dose as 1 hr iv infusion
- Format: ADME, organism-based
- settings: in vivo
endpoint-name: Vd (L)

                                   compound  units_symbol   val
0  Cn1c(N)c(NC(=O)NCCN)c[n+]1CC1=C(C(=O)O)N2C(=O)[C@@H](NC(=O)/C(=N\OC(C)(C)C(=O)[O-])c3nsc(N)n3)[C@H]2SC1 [CEFTOLOZANE]             L  17.6

====

- test-details: Volume of distribution at steady state in healthy human at 250 mg, iv administered as single dose as 1 hr iv infusion
- Assay type: ADME, organism-based
- settings: in vivo
endpoint-name: Vd (L)

>>> df
                           structure_string  endpoint_name   val
0  Cn1c(N)c(NC(=O)NCCN)c[n+]1CC1=C(C(=O)O)N2C(=O)[C@@H](NC(=O)/C(=N\OC(C)(C)C(=O)[O-])c3nsc(N)n3)[C@H]2SC1             Vd  13.1

The origin of these recorded values is ChEMBL document CHEMBL1275247.
